Source of measurements: PubChem BioAssay (NCI)

# Tested on: NCI-H460 lung
# method-summary: NCI-60 one-dose screen, 48 h
# settings: 10 µM
Compounds without any hit were thinned out: in the full panel of roughly 83,000, 20% have a hit. Calls of active or inactive are those of the source. How the source made its calls: active means growth percent below 10; inactive means the rest.
Possible outcomes: true = active, false = inactive

{"columns": ["molecule", "category"],
 "data": [
  ["c1ccc(CNc2ncnc3scc(-c4cccs4)c23)nc1", "false"],
  ["CC/C(=C(/c1ccc(OCCN(C)C)cc1)c1ccc(OC(=O)CCCCC(=O)c2c(C)[nH]c(/C=C3\\N=C(c4ccc[nH]4)C=C3OC)c2C)cc1)c1ccccc1", "false"],
  ["O=C(O)CCCCSc1ncnc2nc[nH]c12", "false"],
  ["COc1ccc2c(c1)sc1nc(-c3ccccc3)c(-c3ccsc3)n12", "true"],
  ["CCCCCCNC(=O)Oc1ccc(/C(=C(/CC)Cc2ccccc2)c2ccc(OCCN3CCCCC3)cc2)cc1", "false"],
  ["COc1cccc(NC(=O)c2sc3nc4c(cc3c2N)C(O)CCC4)c1 (stereo unspecified)", "false"]
]}
